# Test system: UACC-62 melanoma
# methodDescription: NCI tumour cell line growth inhibition, 48 h; in the data active = GI50 below about 0.43 µM; inactive = the rest
Your response should consist of one outcome taken from 1 (active), -1 (inactive)

Consider the following illustrative entries.
CNCCOC(=O)/C=C1\CC[C@H]2[C@@H]([C@@H](O)C(=O)[C@@H]3[C@]2(C)CC[C@H](O)[C@]3(C)C(=O)OC)[C@H]1C: -1
CCOC(=O)Nc1cc2c(c(N)n1)N=C(c1ccccc1)CO2: 1
CC(C)(/C=C(\C#N)C(=O)N1CCC[C@@H](n2nc(-c3ccc(Oc4ccccc4)cc3F)c3c(N)ncnc32)C1)N1CCN(C2COC2)CC1: -1
S=c1[nH]c(=S)c2cc3ccccc3nc2[nH]1: -1
CCC[CH2][Sn]([CH2]CCC)([O]C(=O)c1ccc(OC)c(OC)c1OC)[O][Sn]([CH2]CCC)([CH2]CCC)[O]C(=O)c1ccc(OC)c(OC)c1OC: 1
Cc1nc(Nc2cccnc2)sc1C(=O)/C=C/c1ccc(F)cc1: -1

Prompt: Dear all, I need the recorded test outcome for `O=C(c1ccco1)c1c(C(F)(F)F)nc2ccc(Cl)cc2[n+]1[O-]` , thank you.
Response: -1

Prompt: Subsequent entry: `NC(N)=N/N=C/c1c(Cl)cccc1Cl`
Response: -1

Prompt: Subsequent entry: `CCN1CCN(c2cc(C)c3cc(NC(=O)c4ccc(OC)c(OC)c4)ccc3n2)CC1`
Response: -1

---

Known TGI of a selection of molecules
# Test system: SW-620 colon
# methodDescription: NCI tumour cell line growth inhibition, 48 h

NCCCN1c2ccccc2Sc2ccc(Cl)cc21: > 7 µM
CCNC(=S)NNC(=O)C12CC3CC(CC(C3)C1)C2: > 100 µM
CN1C(=O)c2ccccc2NC(=O)C12O[C@@H]2c1ccccc1 (some centres undefined): > 100 µM
COc1cc(OC)c2c(=O)cc(-c3ccc(OC)c(OC)c3OC)oc2c1: > 100 µM
COC(=O)/C(=C/c1ccc(OC)cc1)C(C(=O)O)=C1CCCC1: > 100 µM
C=C1CC(C#N)(C#N)[C@H]2C3CCCC3C[C@@H]12 (some centres undefined) (tested in a mixture with another compound): 29.7 µM
COc1ccc(C2c3cn[nH]c3CC3CCCCC32)cc1 (centres undefined): 35.4 µM
COc1ccc2nc3ccccc3c(NCc3ccc(F)cc3)c2c1: 7.03 µM
Cc1c(O)nc(-n2[nH]c3c(c2=O)CCCC3)[nH]c1=O: > 100 µM
O=c1[nH][nH]c(=O)n1CCCCCCn1c(=O)[nH][nH]c1=O: > 100 µM

Prompt: For the molecule shown here, `CCCCCCCCCCCCCCCC(=O)OCCOCCOCCOCc1ccccc1` , give the reported TGI.
Response: > 100 µM

Prompt: Subsequent entry: `CCN1CCN(c2cc(C)c3cc(NC(=O)c4ccc(OC)c(OC)c4)ccc3n2)CC1`
Response: > 42.3 µM

Prompt: Subsequent entry: `O=C1CCC(c2ccccc2)=NN1c1nsc2ccccc12`
Response: > 100 µM

Prompt: Subsequent entry: COC(=O)/C(=N\NC(N)=S)C(C(=O)OC)C(=O)C(=O)Nc1ccc(C)cc1 (centres undefined)
Response: > 100 µM

Prompt: Subsequent entry: COc1ccc(CCN(C)C2CCC(C#N)(c3ccc(OC)c(OC)c3)CC2)cc1OC (centres undefined)
Response: > 100 µM

Prompt: Subsequent entry: `C[n+]1c(/C=C/c2c(O)ccc3ccccc23)ccc2ccccc21`
Response: 16.1 µM

Prompt: Subsequent entry: `NC(=O)c1c(NC(=O)c2ccccc2)sc2c1CCC(=O)C2`
Response: 2.93 µM

Prompt: Subsequent entry: CC(c1ccccc1)N1CCN(C(C)c2ccccc2)CC1 (centres undefined)
Response: > 100 µM

Prompt: Subsequent entry: `CCOC(=O)c1ccc(/C(C)=N/NC(N)=S)cc1`
Response: > 100 µM

---

Known TGI of a selection of compounds
# System: DMS 114 small cell lung
# methodDescription: NCI tumour cell line growth inhibition, 48 h

Example compounds with recorded TGI:
CCOC(=O)c1nc2c(OC)nn(O)cc-2c1[N+](=O)[O-]: 48.4 µM
Cc1c(N(C)C)ccc2c(=O)c3cccc(CC(=O)O)c3oc12: > 100 µM
Cc1nc(Nc2ccc(Cl)cc2)sc1C(=O)NNC(=S)NN: 39 µM
O=C1CCC(c2ccccc2)=NN1c1nsc2ccccc12: > 100 µM
Cc1ccc(/C=N\NC2c3cc(Cl)ccc3Nc3nc(=O)[nH]c(C)c32)cc1 (stereo not given): > 100 µM
COC(=O)C(=Cc1cc(OC)c(OC)c(OC)c1-c1cc2c(cc1C1(C)OCCS1)OCO2)C(=O)OC (stereo not given): > 100 µM
C/C(CC(=O)Nc1ccc(C)c(C)c1)=N\N(c1ccccc1)c1ccccc1: 33.2 µM
CCCCCCCCCCCCCCCCNc1cccc2ccccc12: > 100 µM

Prompt: For the compound shown here, `COc1ccc(OCC(=O)O)c2c1CCCC2=O` , give the reported TGI.
Response: > 100 µM

Prompt: Subsequent entry: `c1ccc2c(OCCSCCCCCCCCCCSCCOc3cccc4ccccc34)cccc2c1`
Response: > 100 µM

Prompt: Subsequent entry: `N#C/C(=C\c1ccc2ccccc2c1)C(=O)c1ccccc1`
Response: > 100 µM

Prompt: Subsequent entry: CC12CCC(=O)C[C@H]1CCC(OC=O)C2Br (stereo not given in full)
Response: > 100 µM

Prompt: Subsequent entry: `CN(C)CCC(/C=C/c1ccccc1)=N\Nc1ccccc1`
Response: 17.3 µM

---

# Tested on: MDA-MB-231 breast
# methodDescription: NCI tumour cell line growth inhibition, 48 h
Known TGI of a selection of compounds

Example compounds with recorded TGI:
Cc1cc(/N=C/c2ccc(N(C)C)cc2)n(-c2ccccc2)n1: > 100 µM
CN1CCN(c2ccc(Nc3cc(-c4cccc(-n5ccc6cc(C7CC7)cc(F)c6c5=O)c4CO)cn(C)c3=O)nc2)CC1: 6.17 µM
C/C(C[n+]1ccccc1)=N\N=C(N)N: > 100 µM
C/C(=N\N=C1/C(=O)OC(c2ccccc2)=C1C(=O)c1ccccc1)c1ccc([N+](=O)[O-])cc1: > 100 µM

Prompt: // fetch MDA-MB-231 breast TGI for `O=C1c2cc(-c3ccccc3)cnc2S(=O)(=O)N1c1ccc(Br)cc1`
Response: > 100 µM

Prompt: Subsequent entry: CC(C)(C)[Si](C)(C)OCC1OC(n2ccc(=O)[nH]c2=O)C(O[Si](C)(C)C(C)(C)C)/C1=C/C#N (configuration not stated)
Response: > 83.5 µM

Prompt: Subsequent entry: `NC1CCN(Cc2ccccc2)CC1`
Response: > 100 µM

---

# System: SF-268 CNS
# methodDescription: NCI tumour cell line growth inhibition, 48 h
outcomeMeasure: TGI

Example compounds with recorded TGI:
Cc1c2cc[n+](C)c(C)c2cc2c1[nH]c1ccccc12: 5.6 µM
COC(=O)C(=Cc1cc(OC)c(OC)c(OC)c1-c1cc2c(cc1C1(C)OCCS1)OCO2)C(=O)OC (stereo not given): > 100 µM
COc1cc(C(=O)N2CCN(C(=O)c3cc(OC)c(OC)c(OC)c3)C2=S)cc(OC)c1OC: 26.1 µM

Prompt: For the compound shown here, `CCCCCCCCCCCCCCCC(=O)OCCOCCOCCOCc1ccccc1` , give the reported TGI.
Response: > 100 µM

Prompt: Subsequent entry: `O=c1oc2cc(O)ccc2c(O)c1C(c1ccccc1)c1c(O)c2ccc(O)cc2oc1=O`
Response: > 100 µM

Prompt: Subsequent entry: `N#CC(C#N)=C1SC(=Nc2ccccc2)C(=Nc2ccccc2)N1c1ccccc1`
Response: > 66.7 µM

Prompt: Subsequent entry: `COc1cnc2c(c1)C(=O)c1c-2n(CCCNC2=NCCS2)c(=O)c2cc([N+](=O)[O-])ccc12`
Response: 1.88 µM

Prompt: Subsequent entry: O=C(O)c1ccccc1CC(Cc1ccc2c(c1)CCC2)C(=O)O (stereo not given)
Response: > 100 µM

Prompt: Subsequent entry: `CC(C)(/C=C(\C#N)C(=O)N1CCC[C@@H](n2nc(-c3ccc(Oc4ccccc4)cc3F)c3c(N)ncnc32)C1)N1CCN(C2COC2)CC1`
Response: 21.8 µM

Prompt: Subsequent entry: `On1c(-c2ccccc2)c(-c2ccccc2N2CCCC2)c2ccccc21`
Response: > 100 µM

---

# System: LOX IMVI melanoma
# methodDescription: NCI tumour cell line growth inhibition, 48 h
Known TGI of a selection of compounds

Example compounds with recorded TGI:
Cn1c(SCc2ccc(F)cc2)nnc1C12CC3CC(CC(C3)C1)C2: 45.6 µM
CC1(C)OC[C@@H](O)[C@H](C#N)CO1: > 100 µM
COc1ccc(C2c3cn[nH]c3CC3CCCCC32)cc1 (stereo unspecified): 31.8 µM
COc1cc(OC)c2c(=O)cc(-c3ccc(OC)c(OC)c3OC)oc2c1: > 100 µM
CCCNc1ncnc2c1ncn2C: > 100 µM

Prompt: For the compound shown here, `O=C(/C(=C/c1ccc(Cl)cc1)c1ccccc1)c1ccccc1` , give the reported TGI.
Response: 29 µM

Prompt: Subsequent entry: `O=C1c2cc(-c3ccccc3)cnc2S(=O)(=O)N1c1ccc(Br)cc1`
Response: > 100 µM
